The measured values listed here are drawn from ChEMBL document CHEMBL5143663.

Assay: Tmax in Wistar rat at 3 mg/kg, po
Type: ADME, organism-based
Conditions: in vivo
result type: Tmax (min)

molecule="N#CCNC(=O)c1ccc(-c2ccnc(Nc3ccc(N4CCOCC4)cc3)n2)cc1 [MOMELOTINIB]" result_type=Tmax numeric_value=60
molecule=N#CCNC(=O)c1ccc(-c2nc(Nc3ccc(N4CCC(N5CCOCC5)CC4)cc3)ncc2F)cc1 result_type=Tmax numeric_value=37.8
molecule=N#CCNC(=O)c1ccc(-c2nc(Nc3ccc(N4CCC(N5CCOCC5)CC4)cc3)ncc2Cl)cc1 result_type=Tmax numeric_value=15
molecule=Cc1cnc(Nc2ccc(N3CCC(N4CCOCC4)CC3)cc2)nc1-c1ccc(C(=O)NCC#N)cc1 result_type=Tmax numeric_value=360

====

Target: Tyrosine-protein kinase JAK2 (Homo sapiens, UniProt O60674)
Sequence (O60674 whole entry, the tested form may be a part): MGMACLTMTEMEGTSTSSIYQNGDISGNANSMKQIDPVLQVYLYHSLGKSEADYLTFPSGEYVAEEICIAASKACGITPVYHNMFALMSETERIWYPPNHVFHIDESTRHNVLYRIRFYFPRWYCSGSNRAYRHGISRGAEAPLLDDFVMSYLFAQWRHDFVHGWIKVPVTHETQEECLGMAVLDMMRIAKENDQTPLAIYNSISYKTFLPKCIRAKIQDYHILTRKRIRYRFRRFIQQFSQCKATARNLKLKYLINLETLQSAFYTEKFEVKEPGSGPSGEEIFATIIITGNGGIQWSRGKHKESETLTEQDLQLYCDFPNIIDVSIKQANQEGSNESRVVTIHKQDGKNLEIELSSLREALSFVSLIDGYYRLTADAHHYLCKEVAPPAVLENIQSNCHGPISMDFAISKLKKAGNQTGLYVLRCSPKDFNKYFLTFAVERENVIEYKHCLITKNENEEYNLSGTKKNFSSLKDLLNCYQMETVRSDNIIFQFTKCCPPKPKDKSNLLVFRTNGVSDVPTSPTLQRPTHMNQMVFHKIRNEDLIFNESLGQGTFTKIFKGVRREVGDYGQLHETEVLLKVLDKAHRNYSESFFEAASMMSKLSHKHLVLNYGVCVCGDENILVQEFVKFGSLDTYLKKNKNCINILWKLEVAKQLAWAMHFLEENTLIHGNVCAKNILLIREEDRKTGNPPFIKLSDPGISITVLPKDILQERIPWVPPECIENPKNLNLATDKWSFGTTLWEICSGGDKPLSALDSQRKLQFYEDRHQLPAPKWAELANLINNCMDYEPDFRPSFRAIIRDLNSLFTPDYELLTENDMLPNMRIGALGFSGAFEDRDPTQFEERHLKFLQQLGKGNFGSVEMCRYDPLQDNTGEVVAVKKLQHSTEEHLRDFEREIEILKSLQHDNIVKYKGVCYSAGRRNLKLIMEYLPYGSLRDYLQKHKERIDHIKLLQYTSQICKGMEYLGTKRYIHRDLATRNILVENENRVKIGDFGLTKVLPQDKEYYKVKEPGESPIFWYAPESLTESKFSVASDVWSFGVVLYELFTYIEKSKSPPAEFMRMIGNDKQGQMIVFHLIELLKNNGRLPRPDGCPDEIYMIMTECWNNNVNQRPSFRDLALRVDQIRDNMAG
Test: Inhibition of human JAK2 kinase domain at 100 nM relative to control
result type: inhibition (%)

molecule="N#CCNC(=O)c1ccc(-c2ccnc(Nc3ccc(N4CC5OCCOC5C4)cc3)n2)cc1 (stereo not given)" study_target="Tyrosine-protein kinase JAK2 (Homo sapiens, UniProt O60674)" result_type=inhibition measure_unit=% numeric_value=68
molecule=N#CCNC(=O)c1ccc(-c2ccnc(Nc3ccc(N4CCC5(CC4)CS(=O)(=O)C5)cc3)n2)cc1 study_target="Tyrosine-protein kinase JAK2 (Homo sapiens, UniProt O60674)" result_type=inhibition measure_unit=% numeric_value=34
molecule=N#CCNC(=O)c1ccc(-c2ccnc(Nc3ccc(-n4cncn4)cc3)n2)cc1 study_target="Tyrosine-protein kinase JAK2 (Homo sapiens, UniProt O60674)" result_type=inhibition measure_unit=% numeric_value=55
molecule="N#CCNC(=O)c1ccc(-c2ccnc(Nc3ccc(N4CCOCC4)cc3)n2)cc1 [MOMELOTINIB]" study_target="Tyrosine-protein kinase JAK2 (Homo sapiens, UniProt O60674)" result_type=inhibition measure_unit=% numeric_value=90
molecule=CC(=O)N1C2CC1CN(c1ccc(Nc3nccc(-c4ccc(C(=O)NCC#N)cc4)n3)cc1)C2 study_target="Tyrosine-protein kinase JAK2 (Homo sapiens, UniProt O60674)" result_type=inhibition measure_unit=% numeric_value=47
molecule=N#CCNC(=O)c1ccc(-c2ccnc(Nc3ccc(N4CCC5(CCOC5)CC4)cc3)n2)cc1 study_target="Tyrosine-protein kinase JAK2 (Homo sapiens, UniProt O60674)" result_type=inhibition measure_unit=% numeric_value=65
molecule=N#CCNC(=O)c1ccc(-c2ccnc(Nc3ccc(N4CCOCC4=O)cc3)n2)cc1 study_target="Tyrosine-protein kinase JAK2 (Homo sapiens, UniProt O60674)" result_type=inhibition measure_unit=% numeric_value=71
molecule=Cc1nc2c(s1)CN(c1ccc(Nc3nccc(-c4ccc(C(=O)NCC#N)cc4)n3)cc1)CC2 study_target="Tyrosine-protein kinase JAK2 (Homo sapiens, UniProt O60674)" result_type=inhibition measure_unit=% numeric_value=70
molecule=N#CCNC(=O)c1ccc(-c2ccnc(Nc3ccc(N4CCC5(CCCO5)CC4)cc3)n2)cc1 study_target="Tyrosine-protein kinase JAK2 (Homo sapiens, UniProt O60674)" result_type=inhibition measure_unit=% numeric_value=67
molecule=N#CCNC(=O)c1ccc(-c2ccnc(Nc3ccc(-n4cc5c(c4)OCCO5)cc3)n2)cc1 study_target="Tyrosine-protein kinase JAK2 (Homo sapiens, UniProt O60674)" result_type=inhibition measure_unit=% numeric_value=10

====

Target: Tyrosine-protein kinase JAK2 (Homo sapiens)
Experiment: Inhibition of human JAK2 kinase domain at 10 nM relative to control
Classify as follows. Reported inhibition greater than or equal to 20%: y. Reported inhibition below: n.

compound=N#CCNC(=O)c1ccc(-c2ccnc(Nc3ccc(N4CC5CC(C4)O5)cc3)n2)cc1 category=y
compound=N#CCNC(=O)c1ccc(-c2ccnc(Nc3ccc(-n4cccn4)cc3)n2)cc1 category=n
compound="N#CCNC(=O)c1ccc(-c2ccnc(Nc3ccc(N4CC5COCC5C4)cc3)n2)cc1 (stereo unspecified)" category=n
compound=CC(=O)N1C2CC1CN(c1ccc(Nc3nccc(-c4ccc(C(=O)NCC#N)cc4)n3)cc1)C2 category=n
compound=Cc1nc2c(s1)CN(c1ccc(Nc3nccc(-c4ccc(C(=O)NCC#N)cc4)n3)cc1)CC2 category=n
compound="N#CCNC(=O)c1ccc(-c2ccnc(Nc3ccc(N4CC5OCCOC5C4)cc3)n2)cc1 (stereo unspecified)" category=n
compound=N#CCNC(=O)c1ccc(-c2ccnc(Nc3ccc(N4CCC5(CCCO5)CC4)cc3)n2)cc1 category=n
compound=N#CCNC(=O)c1ccc(-c2ccnc(Nc3ccc(N4CCC5(CC4)COC(=O)C5)cc3)n2)cc1 category=y
compound=N#CCNC(=O)c1ccc(-c2ccnc(Nc3ccc(N4CCOCC4)cc3)n2)cc1 category=y
